Target: S. mutans dihydrofolate reductase (SmDHFR) (Streptococcus mutans)
reported_metric: IC50

Ask | Look up IC50 for this molecule: COc1cc(NCc2ccc3nc(N)nc(N)c3c2C)cc(OC)c1OC [TMQ, trimetrexate]
Reply | 2.2 nM

---

Biological target: S. mutans dihydrofolate reductase (SmDHFR) (Streptococcus mutans, UniProt Q8DUI2)
Test: SmDHFR enzymatic activity assay
Type: biochemical
reported_metric: Ki (nM)
Give bare numbers, in nM.

Ask | Look up Ki for this compound: COc1cc(NCc2ccc3nc(N)nc(N)c3c2C)cc(OC)c1OC [TMQ, trimetrexate]
Reply | 1.3

---

Test system: Streptococcus mutans UA159
Assay: Streptococcus mutans cell growth inhibition
Type: cell-based
Settings: UA159, read-out: IC50 Growth
reported_metric: IC50 (nM)
Answers are plain numbers, in nM.

Ask | Look up IC50 for this compound: COc1cc(NCc2ccc3nc(N)nc(N)c3c2C)cc(OC)c1OC [TMQ, trimetrexate]
Reply | 42.5
